targetDesc: T1, S. cerevisiae β‘-COPI WD40 domain (β‘WD40), wild type (S. cerevisiae, UniProt P41811 1-301)
T1 sequence: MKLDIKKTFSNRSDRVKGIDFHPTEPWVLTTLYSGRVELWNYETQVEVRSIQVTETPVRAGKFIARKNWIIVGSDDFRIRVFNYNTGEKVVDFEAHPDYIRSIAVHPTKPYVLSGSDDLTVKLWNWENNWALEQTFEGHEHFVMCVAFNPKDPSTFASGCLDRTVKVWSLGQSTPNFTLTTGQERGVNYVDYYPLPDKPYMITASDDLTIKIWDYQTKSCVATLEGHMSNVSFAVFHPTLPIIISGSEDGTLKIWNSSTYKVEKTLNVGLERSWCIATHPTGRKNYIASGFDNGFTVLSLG
assay: BLI; […]; pH 6.5 ([…]; 25 °C; Octet RED96; […]
assayContext: both partners purified
endpointName: Kd (nM)
Give bare numbers, in nM.

Q: Need Kd, item GVKLHYE (also called GVKLHYE; clientized S heptapeptide) [clientized Thr1273Glu SARS-CoV-2 S tail heptapeptide (1267Gly-Val-Lys-Leu-His-Tyr-Glu1273)]
Ans: 2300
